- assay context: 308.15 K; 101 kPa; Liquid; Sing-around technique in a fixed-path interferometer
reported property: speed of sound (m/s)
Answers are plain numbers, in m/s.

| sample smiles | speed of sound (m/s) |
| --- | --- |
| OCCN(CCO)CCO | 1595.5 |
| CC(C)(N)CO | 1442.4 |
| CN(CCO)CCO | 1539.5 |

Here is the next item to consider.
Prompt line: Using known records, supply speed of sound for `NCCO`
Response line: 1686.8

---

What mass density was measured for each of the following?
- assay context: 298.15 K; 101 kPa; Liquid; Vibrating tube method
One number for each entry, in kg/m3.

| sample smiles | mass density [kg/m3] |
| --- | --- |
| CC(C)(N)CO | 932.596 |
| NCCO | 1012.02 |

Record mass density per entry; entries follow.
1. OCCN(CCO)CCO
2. CN(CCO)CCO

Response line:
1120.82
1038.29
